Where do the numbers come from? From BindingDB's records for doi:10.1016/0960-894X(94)00458-R.

- ASSAY_PROTOCOL: The activity of cGPK, activated by cGMP, is measured by its ability to transfer phosphate from [gamma-32P]ATP to histone.
METRIC_NAME: IC50 (nM)
Dear colleague, please return just the value in nM, with no unit written.

Cn1c2ccc(O)cc2c2c3c(c4c5cc(O)ccc5n(CCC#N)c4c21)CNC3=O: 30
CN(C)CCCn1c2ccccc2c2c3c(c4c5ccccc5n(C)c4c21)C(=O)NC3: 250
COc1ccc2c(c1)c1c3c(c4c5ccccc5n(C)c4c1n2CCC#N)C(=O)NC3=O: 200
COc1ccc2c(c1)c1c3c(c4c5ccccc5n(C)c4c1n2CC(O)CN(C)C)C(=O)NC3=O (centres undefined): 120
Cn1c2ccccc2c2c3c(c4c5ccccc5n(CCC#N)c4c21)C(=O)NC3=O: 55

Which IC50 reading was recorded for the compound CN(C)CCCn1c2ccc(O)cc2c2c3c(c4c5cc(O)ccc5[nH]c4c21)C(=O)NC3 ?
310

Which IC50 reading was recorded for the compound CN(C)CCCn1c2ccccc2c2c3c(c4c5ccccc5[nH]c4c21)C(=O)NC3 ?
390

Which IC50 reading was recorded for the compound COc1ccc2c(c1)c1c3c(c4c5ccccc5n(C)c4c1n2CC(O)CN(C)C)C(=O)NC3 (centres undefined) ?
9200

Which IC50 reading was recorded for the compound COc1ccc2c(c1)c1c3c(c4c5cc(OC)ccc5n(CCC#N)c4c1n2C)C(=O)NC3=O ?
180
